This collection of values is drawn from paper PMC6477676.

Molecular target: T1, mStau2 dsRBD1-2 K59A (Mus musculus, UniProt Q8CJ67 8-181, K59A)
T1 sequence: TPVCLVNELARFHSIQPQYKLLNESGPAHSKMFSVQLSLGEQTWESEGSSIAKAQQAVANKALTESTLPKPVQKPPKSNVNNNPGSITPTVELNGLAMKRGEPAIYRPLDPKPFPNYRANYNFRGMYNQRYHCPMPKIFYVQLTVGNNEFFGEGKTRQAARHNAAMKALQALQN
Assay: SPR; Hill n 1.2; SPR: HBS-EP (10 mM HEPES pH 7.4, 150 mM NaCl, 3 mM EDTA, 0.005% P20); EMSA: 5 nM RNA, protein buffer (40 mM Bis-Tris pH 7, 150 mM NaCl, 2 mM DTT presumed), 4% glycerol, 30 ug/mL yeast tRNA, RT; NMR: 150 mM NaCl, 20 mM Na phosphate pH 7.0, 5 mM DTT, 298 K
Settings: protein: recombinant; label: 5' 32P (EMSA); biotin (SPR); hairpin, 18 bp stem
measurement.kind: pKd
One number for each entry, as −log10 of the molar value.

Briefly, pKd measured for GGUAUAUACAUGCACAUGCAAUUUGUGUAUGUGUAUGUAUAUA (structured_RNA) [SRS2+5] : 6.29
